Values from the supplement of paper PMC6555819

Please provide measured PBM binding z-score for the entries that follow.
# System: RARa:RXR (NR concentration 270 nM, RXRa partner concentration 90 nM)
# Experiment: PBM binding z-score (relative to random genomic background probes); higher = stronger binding; sequences stand for … in GC…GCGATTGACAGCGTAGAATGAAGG
Answers are plain numbers.

Consider the following illustrative entries.
CCGACCGGGGCATAAGGTTACCATAAGCCAGCCC : 1.79
TCTGCGAGGTCAGTTGGTCAGCTAACGAGCTGCC : 2.68
CCTACTGGGCCATGCAGAGGTCATTGATCATATG : 4.75
TCGAGTAGGTTAGTCGGGGCATTCCGCCAACATA : 0.175
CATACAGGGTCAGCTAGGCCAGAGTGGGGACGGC : 2.78

List reported PBM binding z-score for each of these sequences:
1. CCTCAGAGGACAACAGGAGGTCAGAGCTGCCAGA
2. ACAGACAGGTGATGAAGGTAAGTCAGGCTATCAT
3. TAGCCTAGGTCAGATCGGGCCAGCATACGCTATA
4. ATCTCCAGGTAAGACTCAGTTCAGTGAAGAACGC
5. ACTATTAGTTGACTTAGGGGAACCGATACGACGC

Reply:
1: 2.24; 2: -0.203; 3: 1.3; 4: 0.454; 5: 0.648

---

# Test system: RARg:RXRa (NR concentration 270 nM, RXRa partner concentration 90 nM)
# Experiment: PBM binding z-score (relative to random genomic background probes); higher = stronger binding; sequences stand for … in GC…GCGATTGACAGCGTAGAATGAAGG
Classification field: enter true for PBM binding z-score values not below 2, false for values below it.

Known results for sequences:
ATCCAAAGGTCGTGAGGTGAGTATACAGAAAGGC : true
GTACCAAGGTGAATAGGTCGTAGATGAGTAGGCG : true
ATCGAAAGGTCGACGAGGTGAATATACACCGTTT : true
CCGACTGGGGCAAAGGTTACCCTACTCAGTACGA : true
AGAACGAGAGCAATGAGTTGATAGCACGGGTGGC : false

Task item: Exam item: decide whether the reported PBM binding z-score for `CCTCGGAGGACAACAGGAGTTCAGAGCTGCCAGA` is at least 2.
Reply: false

Task item: Exam item: decide whether the reported PBM binding z-score for `CCTAGTTGGTCAGGAGGTAACACACCGGATATGA` is at least 2.
Reply: false

Task item: Exam item: decide whether the reported PBM binding z-score for `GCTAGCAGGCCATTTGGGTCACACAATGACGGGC` is at least 2.
Reply: false

Task item: Exam item: decide whether the reported PBM binding z-score for `TCTTGTAGATCAATAGAGGTTAAGATAGTGCGCT` is at least 2.
Reply: false

---

# Test system: PXR homodimer (NR concentration 270 nM)
# Experiment: PBM binding z-score (relative to random genomic background probes); higher = stronger binding; sequences stand for … in GC…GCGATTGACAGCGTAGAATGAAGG
Please provide measured PBM binding z-score for the entries that follow.

TCTAGCAGGCAAGAGGGTCACTCAAGAGGTACGG : -0.663
GCAGACAGGTGAAACGGAGGTAACTCAGGGTGGC : -0.337

List reported PBM binding z-score for each of these sequences:
1. TCATATAGGTAATACAGGTGACAGTCGGCATCTA
2. TCTAGCAGGCCAGAGGGTCACTCAGGAGGTACGG
3. ACAGACAGCTGAGTGAAGGTAACTCAGCTGGACG
4. ATCTCTAGGTAACAAGTTCAGTTAAAGAGAGGAC
5. TCTAGTTGGTCAAAGGTCACACAATCGAAATGCG
6. ATATGTAGGTTACATCCGGATCATTCAGGCTATG
7. GGAACGAGGGCAAGTTGATAACAGAGTTTGATGG

Reply:
[0.723, -0.32, -0.603, 1.75, 2.1, 0.559, 0.526]

List reported PBM binding z-score for each of these sequences:
1. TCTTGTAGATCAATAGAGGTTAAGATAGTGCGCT
2. CAAACTAGGTCACATAGGTCAAAGTCCGTGCGTA
3. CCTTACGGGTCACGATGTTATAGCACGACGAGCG
4. TCTAGTTGGTCAAAGGGCACACACTCGAAATGCG
5. CCAGACAGGTGATAAGGTAACTCAGCCTCGATTA
6. TCATATAGGTAAACAGGTGAAAGTTCGTAAGTTA
7. GCTGCTAGGTCACGTTGGTCAGCTAACGGGTACG
8. ATATGTAGGTTAGCTGGGGCCATTCAGACTAGGC

Reply:
[-0.0224, 4, 0.295, 0.178, 0.227, 2.12, -0.356, 0.538]
